List of kon values.
Target: PCV2 Cap protein (Porcine circovirus 2, UniProt O56129)
Construct: made in house; host or cells: E. coli BL21 (pET28a-Cap)
Sequence (O56129 whole entry): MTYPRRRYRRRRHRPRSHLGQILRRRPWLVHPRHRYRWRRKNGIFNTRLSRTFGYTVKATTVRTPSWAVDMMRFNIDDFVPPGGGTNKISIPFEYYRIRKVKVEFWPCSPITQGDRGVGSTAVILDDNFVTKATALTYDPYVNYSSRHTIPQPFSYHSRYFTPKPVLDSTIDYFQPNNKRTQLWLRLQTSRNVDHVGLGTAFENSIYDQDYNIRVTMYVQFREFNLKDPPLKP
Assay: biochemical
Assay type: binding, porcine circovirus type II
Details: pH 7.4, read-out: ka
Where no end group is shown, it is not given here.

- SUBSTANCE: "WQSWEWTG [Peptide L9]"
  UNIT_STRING: "M⁻¹ s⁻¹"
  kon: 855
- SUBSTANCE: "WQGMMKEE [Peptide L4]"
  UNIT_STRING: "M⁻¹ s⁻¹"
  kon: 1920
- SUBSTANCE: "KWWQSWEW [Peptide L13]"
  UNIT_STRING: "M⁻¹ s⁻¹"
  kon: 335
- SUBSTANCE: "RKHKRWK [Peptide L7]"
  UNIT_STRING: "M⁻¹ s⁻¹"
  kon: 856

----------
Target: PCV2 Cap protein (Porcine circovirus 2)
Construct: made in house; host or cells: E. coli BL21 (pET28a-Cap)
Assay: biochemical
Format: binding, porcine circovirus type II
Protocol: The equilibrium binding constant (KD) of peptides was determined using an Open SPR instrument (Nicoya, Canada). First, purified Cap protein was covalently immobilized on a carboxyl Au colloidal nanoparticles chip. […] Finally, the data were assessed to determine the association constant (ka, 1/Ms), the dissociation constant (kd, 1/s), the equilibrium binding constant (KD, M), and KD = kd/ka via Trace Drawer 1.7 (Nicoya, Canada). […]
Where no end group is shown, it is not given here.
List of Kd values.
QUANTITY_NAME: Kd (µM)

- SUBSTANCE: "RKHKRWK [Peptide L7]"
  RESULT: 1.06
- SUBSTANCE: "WQSWEWTG [Peptide L9]"
  RESULT: 6.71
- SUBSTANCE: "WQGMMKEE [Peptide L4]"
  RESULT: 1.23
- SUBSTANCE: "KWWQSWEW [Peptide L13]"
  RESULT: 9.97
